# PROCEDURE DETAILS: SAD phase pharmacokinetics
# Assay type: in vivo, human
# ASSAY CONDITIONS: human, plasma, oral, 0.3 mg, C max, Median, SAD 0.3 mg
QUANTITY MEASURED: Cmax (ng/mL)
A number alone suffices; assume ng/mL.

Problem: Look at this compound and give its reported Cmax. Fc1ccccc1Cc1nc(-c2nc(C(F)(F)F)n[nH]2)cn2ccnc12
Result: 40.5

* * *

# PROCEDURE DETAILS: MAD phase pharmacokinetics
# Format: in vivo, human
# ASSAY CONDITIONS: human, plasma, oral, 10 mg, C max, Median, MAD 10 mg q.d., day 1
QUANTITY MEASURED: Cmax (ng/mL)
Entry rule: numbers only, all in ng/mL.

Problem: What measured Cmax goes with Fc1ccccc1Cc1nc(-c2nc(C(F)(F)F)n[nH]2)cn2ccnc12 [zagociguat] ?
Result: 1140

* * *

# PROCEDURE DETAILS: MAD phase pharmacokinetics
# Type: in vivo, human
# ASSAY CONDITIONS: human, plasma, oral, 15 mg, T max, Median, MAD 15 mg q.d., day 14
QUANTITY MEASURED: Tmax

Problem: Entry Fc1ccccc1Cc1nc(-c2nc(C(F)(F)F)n[nH]2)cn2ccnc12 has what Tmax?
Result: 3.5 h

* * *

# PROCEDURE DETAILS: SAD phase pharmacokinetics
# Type: in vivo, human
# ASSAY CONDITIONS: human, plasma, oral, 0.3 mg, AUClast, GeoMean, SAD 0.3 mg
QUANTITY MEASURED: AUC(0-t)
Please don't drop the unit; write it after the number.

Problem: Query (compound): Fc1ccccc1Cc1nc(-c2nc(C(F)(F)F)n[nH]2)cn2ccnc12 ; field requested: AUC(0-t)
Result: 1060 ng·h/mL

* * *

# PROCEDURE DETAILS: MAD phase pharmacokinetics
# Format: in vivo, human
# ASSAY CONDITIONS: human, plasma, oral, 2 mg, C trough, Median, MAD 2 mg q.d., day 13
QUANTITY MEASURED: concentration at 13 day (ng/mL)
Unit ng/mL implied. Number only.

Problem: If you can, please state the reported concentration at 13 day value of Fc1ccccc1Cc1nc(-c2nc(C(F)(F)F)n[nH]2)cn2ccnc12 .
Result: 610

* * *

# PROCEDURE DETAILS: SAD phase pharmacokinetics
# Type: in vivo, human
# ASSAY CONDITIONS: human, plasma, oral, 50 mg, t 1/2, Median, SAD 50 mg
QUANTITY MEASURED: half-life
Remember to quote the unit after the number.

Problem: Which half-life is listed for Fc1ccccc1Cc1nc(-c2nc(C(F)(F)F)n[nH]2)cn2ccnc12 ?
Result: 57.3 h

* * *

# PROCEDURE DETAILS: MAD phase pharmacokinetics
# Assay type: in vivo, human
# ASSAY CONDITIONS: both, human, plasma, oral, 2 mg, AUC τ, Median, MAD 2 mg q.d., day 1
QUANTITY MEASURED: AUC (ng·h/mL)
Give the quantity in ng·h/mL, number only.

Problem: Can you look up the measured AUC of Fc1ccccc1Cc1nc(-c2nc(C(F)(F)F)n[nH]2)cn2ccnc12 for me?
Result: 4520

* * *

# PROCEDURE DETAILS: MAD phase pharmacokinetics
# Assay type: in vivo, human
# ASSAY CONDITIONS: human, plasma, oral, 10 mg, C trough, Median, MAD 10 mg q.d., day 11
QUANTITY MEASURED: concentration at 11 day (ng/mL)
Answer in ng/mL, number only, no unit symbol.

Problem: Which concentration at 11 day value is on record for Fc1ccccc1Cc1nc(-c2nc(C(F)(F)F)n[nH]2)cn2ccnc12 [zagociguat] ?
Result: 3090

* * *

# PROCEDURE DETAILS: MAD phase pharmacokinetics
# Type: in vivo, human
# ASSAY CONDITIONS: human, plasma, oral, 2 mg, C trough, Median, MAD 2 mg q.d., day 11
QUANTITY MEASURED: concentration at 11 day (ng/mL)
Dear colleague, please return just the value in ng/mL, with no unit written.

Problem: Consider the compound shown here: Fc1ccccc1Cc1nc(-c2nc(C(F)(F)F)n[nH]2)cn2ccnc12 What is its recorded concentration at 11 day?
Result: 579

* * *

# PROCEDURE DETAILS: SAD phase pharmacokinetics
# Type: in vivo, human
# ASSAY CONDITIONS: human, plasma, oral, 20 mg, AUClast, GeoMean, SAD 20 mg
QUANTITY MEASURED: AUC(0-t) (µg·h/mL)
# number only, unit µg·h/mL dropped from output

Problem: Bench note: what AUC(0-t) did Fc1ccccc1Cc1nc(-c2nc(C(F)(F)F)n[nH]2)cn2ccnc12 show?
Result: 167

* * *

# PROCEDURE DETAILS: SAD phase pharmacokinetics
# Type: in vivo, human
# ASSAY CONDITIONS: human, plasma, oral, Median T max, range, SAD doses of 0.3–3 mg
QUANTITY MEASURED: Tmax

Problem: Name the recorded Tmax for Fc1ccccc1Cc1nc(-c2nc(C(F)(F)F)n[nH]2)cn2ccnc12 .
Result: 0.5 to 2.1 h

* * *

# PROCEDURE DETAILS: MAD phase pharmacokinetics
# Type: in vivo, human
# ASSAY CONDITIONS: human, plasma, oral, 10 mg, C max, Median, MAD 10 mg q.d., day 14
QUANTITY MEASURED: Cmax (ng/mL)
Unit ng/mL implied. Number only.

Problem: Fill in: Cmax of Fc1ccccc1Cc1nc(-c2nc(C(F)(F)F)n[nH]2)cn2ccnc12 is ___
Result: 4050

* * *

# PROCEDURE DETAILS: SAD phase pharmacokinetics
# Format: in vivo, human
# ASSAY CONDITIONS: human, plasma, oral, 50 mg, AUCinf, GeoMean, SAD 50 mg
QUANTITY MEASURED: AUC(0-inf) (µg·h/mL)
Please reply with the bare figure in µg·h/mL and do not write the unit itself.

Problem: Quick check: AUC(0-inf) of Fc1ccccc1Cc1nc(-c2nc(C(F)(F)F)n[nH]2)cn2ccnc12 [zagociguat] ?
Result: 478

* * *

# PROCEDURE DETAILS: SAD phase pharmacokinetics
# Assay type: in vivo, human
# ASSAY CONDITIONS: human, plasma, oral, 50 mg, T max, Median, SAD 50 mg
QUANTITY MEASURED: Tmax (h)
Respond numerically; units are h and should not be typed.

Problem: Which Tmax reading was recorded for the compound Fc1ccccc1Cc1nc(-c2nc(C(F)(F)F)n[nH]2)cn2ccnc12 ?
Result: 5

* * *

# PROCEDURE DETAILS: MAD phase pharmacokinetics
# Assay type: in vivo, human
# ASSAY CONDITIONS: human, plasma, oral, 15 mg, AUC τ, Median, MAD 15 mg q.d., day 1
QUANTITY MEASURED: AUC (ng·h/mL)
Your answer is read as ng·h/mL, so omit the unit and give the number.

Problem: What does the record list as AUC for Fc1ccccc1Cc1nc(-c2nc(C(F)(F)F)n[nH]2)cn2ccnc12 ?
Result: 30100

* * *

# PROCEDURE DETAILS: MAD phase pharmacokinetics
# Type: in vivo, human
# ASSAY CONDITIONS: human, plasma, oral, 5 mg, AUC τ, GeoMean, MAD 5 mg q.d., day 1
QUANTITY MEASURED: AUC (ng·h/mL)
Enter your answer as a number in ng·h/mL; do not include the unit.

Problem: Bench note: what AUC did Fc1ccccc1Cc1nc(-c2nc(C(F)(F)F)n[nH]2)cn2ccnc12 show?
Result: 11000

* * *

# PROCEDURE DETAILS: MAD phase pharmacokinetics
# Format: in vivo, human
# ASSAY CONDITIONS: human, plasma, oral, 2 mg, C trough, GeoMean, MAD 2 mg q.d., day 14
QUANTITY MEASURED: concentration at 14 day (ng/mL)
Enter your answer as a number in ng/mL; do not include the unit.

Problem: Item Fc1ccccc1Cc1nc(-c2nc(C(F)(F)F)n[nH]2)cn2ccnc12 [zagociguat] has what recorded concentration at 14 day?
Result: 624

* * *

# PROCEDURE DETAILS: MAD phase pharmacokinetics
# Format: in vivo, human
# ASSAY CONDITIONS: human, plasma, oral, 10 mg, C trough, GeoMean, MAD 10 mg q.d., day 1
QUANTITY MEASURED: concentration at 1 day
Give the number first and the unit second.

Problem: What value of concentration at 1 day has been reported for the following molecule? Fc1ccccc1Cc1nc(-c2nc(C(F)(F)F)n[nH]2)cn2ccnc12 [zagociguat]
Result: 751 ng/mL

* * *

# PROCEDURE DETAILS: MAD phase pharmacokinetics
# Assay type: in vivo, human
# ASSAY CONDITIONS: human, plasma, oral, 10 mg, AUC τ, Median, MAD 10 mg q.d., day 1
QUANTITY MEASURED: AUC (ng·h/mL)
# output: bare number, implied unit ng·h/mL

Problem: If you can, please state the reported AUC value of Fc1ccccc1Cc1nc(-c2nc(C(F)(F)F)n[nH]2)cn2ccnc12 .
Result: 21500
